Data provenance is PubChem BioAssay (NCI).

Assay: NCI Yeast Anticancer Drug Screen. Data for the bub3 strain (AID 167)
Conditions: S. cerevisiae bub3 mutant strain, at 33.0 µM, active compounds read high
Experimental: Growth inhibition of yeast strains with defined genetic alterations is measured as a screen for potential anti-cancer activity. Selected strains with alterations in DNA damage repair or cell cycle control were exposed to compounds and growth inhibition was measured relative to vehicle treated controls. The strain used in this assay is bub3
The panel holds about 79,000 compounds, 15% with a hit somewhere; the sample as a whole holds those more often.
Please use true whenever growth inhibition is not below 10%, and false whenever it is.

Query: Could you please find out whether O=C(O)c1cccc(-c2c3ccc(=O)cc-3oc3cc(O)ccc23)c1 has growth inhibition that meets 10% or exceeds it?
Reply: true

Query: Assess whether reported growth inhibition for Cc1cc2c(cc1C(=O)CCC(=O)O)CC1(C2)Cc2cc(C)c(C(=O)CCC(=O)O)cc2C1 sits at 10% or higher.
Reply: true

---

experiment: NCI Yeast Anticancer Drug Screen. Data for the rad18 strain (AID 177); conditions: S. cerevisiae rad18 mutant growth inhibition; at 1.2 µM; active compounds read high
Compounds without any hit were thinned out: in the full panel of roughly 79,000, 15% have a hit. Calls of active or inactive are those of the source. Rule as the data show it: active = growth inhibition above about 70%; inactive = the rest.
// reported growth inhibition per item

INSERT INTO assay_data (compound, measured_value) VALUES
  ('S=C(Nc1ccc(Cl)cc1)SC1CCCCC1', '-8% (inactive)'),
  ('[O-][n+]1c2ccc(O)cc2nc2ccc(Cl)cc21', '7% (inactive)'),
  ('Cc1ccc2[nH]c3c(C)c4cc[n+](C)cc4c(C)c3c2c1', '-11% (inactive)');

Query: Quickly give me recorded growth inhibition for O=c1ssc2ncccc12
Reply: 7% (inactive)

Query: Query growth inhibition for OC(COc1cccc2ccccc12)CN1CCOCC1 (stereo not drawn)
Reply: 32% (inactive)

Query: Report growth inhibition for C/C(=N\NC(=S)SCc1ccccc1)c1ccccn1
Reply: 39% (inactive)

Query: Dear colleague, please send me the reported growth inhibition for CCCCCCCCC/C=C/C=C/C(=O)NCC(=O)NC1C(O)C(O)C(Nc2ncnc3nc[nH]c23)OC1C(O)CO (stereo not drawn) when you can.
Reply: -7% (inactive)

Query: Give recorded growth inhibition. CN(C)C[C@H]1CC[C@@H](CN(C)C)C1=O
Reply: 21% (inactive)

---

experiment: NCI Yeast Anticancer Drug Screen. Data for the rad50 strain (AID 155);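 note: 0% = growth of vehicle-only cultures of the same strain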; conditions: S. cerevisiae rad50 strain growth inhibition; at 1.2 µM; active compounds read high
Compounds without any hit were thinned out: in the full panel of roughly 79,000, 15% have a hit.
In this section we review reported growth inhibition values for a set of molecules.
Lab book: enter the figure in %, no units written.

Example cases with answers are listed next.
INSERT INTO measurements (molecule, measured_attribute, measured_value) VALUES
  ('CC(=O)N/N=C/C(C)(C)C(C)(C)/C=N/NC(C)=O', 'growth inhibition', -13),
  ('CC[C@@]1(O)C(=O)OCc2c1cc1n(c2=O)Cc2cc3c(CN(C)C)c(O)ccc3nc2-1', 'growth inhibition', 6),
  ('CCNc1nnc(CSc2nc(-c3ccccc3)c(-c3ccccc3)[nH]2)s1', 'growth inhibition', -3);

Query: Assign growth inhibition to the following record: O=C(CCCN1CCC2(CC1)CC(=O)N(N1CCCCCC1)C2=O)c1ccc(F)cc1
Reply: 29

Query: For the molecule CCN(CC)C(=S)N/N=C(/C)c1cccc(/C(C)=N\NC(=S)N(CC)CC)n1 , give its reported growth inhibition.
Reply: -17

Query: Recall and state the measured growth inhibition for O=C1CSc2cc([N+](=O)[O-])ccc2N1 .
Reply: -20

Query: Identify measured growth inhibition associated with COc1ccc(O)c(/C=N\Nc2ccccc2)c1
Reply: -14

Query: For the molecule CC(C)c1ccccc1NC(=O)/C(Cl)=C(\Cl)C(=O)O , report growth inhibition.
Reply: 0

Query: Output growth inhibition of Clc1ccccc1C1OC1c1ccccc1Cl (stereo not drawn)
Reply: -66

Query: Recall and state the measured growth inhibition for NNC(=O)CCc1ccc2ccc3ccccc3c2c1 .
Reply: 0

Query: Tell me growth inhibition reported for CC(=O)OC1CCC2(C)C(=CCC3C4CCC5(OC6CC(C)CN(C(C)=O)C6C5C)C(C)=C4C(=O)C32)C1 (stereo not drawn)
Reply: -49

Query: Look up and report measured growth inhibition for this entry: CCCCCCCCCCNC(=O)OCC
Reply: 1

Query: Give recorded growth inhibition. CN1CCc2ccccc2C1Cc1ccccc1NC(=O)c1sc2ccccc2c1Cl (stereo not drawn)
Reply: -33

Query: Provide one value: measured growth inhibition of CCc1ncnc2cc(OCC3CO3)c(OC)cc12 (stereo not drawn)
Reply: 23

Query: Answer with the recorded growth inhibition of COc1ccc2ccc3ccccc3c2c1C=O only.
Reply: 0

Query: Respond only with growth inhibition recorded for CC(Br)C(=O)c1ccc2cc(Br)c3ccccc3c2c1 (stereo not drawn)
Reply: 1

Query: Report growth inhibition, nothing else, for this molecule: CN(N=O)N1C(=O)SCC(c2ccccc2)(c2ccccc2)C1=O
Reply: 3

Query: Please supply the value of reported growth inhibition for the item C[C@@H]1C[C@H]2[C@@H]3CCC4=CC(=O)C=C[C@]4(C)[C@@]3(Cl)[C@@H](Cl)C[C@]2(C)[C@@]1(O)C(=O)COP(=O)(O)O
Reply: 4

Query: Give recorded growth inhibition. CCN(CC)C(C)(C)C(=O)/C=C/c1ccccc1
Reply: 0
